Below: a set of entries, each annotated with reported half-life.
- assay-protocol: Pharmacokinetics and distribution in brain tissue in mice
- Format: in vivo, ICR mice
- study-conditions: male, ICR, mouse, po; mice, intragastric perfusion 5 mg/kg, brain
Structures can show the parent of a compound that is named as a salt.
Only the number, expressed in min, is required.

C#CCN(Cc1ccc(F)cc1)c1ccc(NC(=O)OC)c(C)c1 [K41•HCl]: 37.8

Now look at this entry.
Challenge: Requested read-out: half-life. Entry: C#CCN(Cc1ccc(F)cc1)c1cc(C)c(NC(=O)OC)c(C)c1.Cl [K43•HCl]
Response given: 63.6

---

- assay-protocol: Pharmacokinetics and distribution in brain tissue in rats
- Format: in vivo, Sprague Dawley rats
- study-conditions: Sprague-Dawley, rat, brain, po, 5 mg/kg, SD rats, PO 5.00 mg/kg, brain tissue; read-out: tmax
outcome-measure: Tmax (h)
Only the number, expressed in h, is required.

Challenge: Requested read-out: Tmax. Entry: C#CCN(Cc1ccc(F)cc1)c1cc(C)c(NC(=O)OC)c(C)c1 [Compound K43]
Response given: 2

---

Below: a set of entries, each annotated with reported AUC0-t.
- assay-protocol: Pharmacokinetics and distribution in brain tissue in mice
- Type: in vivo, ICR mice
- study-conditions: male, ICR, mouse; mice, intravenous injection 2 mg/kg, plasma; read-out: AUC0-t
Counter-ions that a name gives are not always drawn.
Only the number, expressed in ng·h/mL, is required.

C#CCN(Cc1ccc(F)cc1)c1cc(C)c(NC(=O)OC)c(C)c1.Cl [K43•HCl]: 326

Now look at this entry.
Challenge: Requested read-out: AUC0-t. Entry: C#CCN(Cc1ccc(F)cc1)c1ccc(NC(=O)OC)c(C)c1 [K41•HCl]
Response given: 281

---

- assay-protocol: Pharmacokinetics and distribution in brain tissue in mice
- Assay type: in vivo, ICR mice
- study-conditions: male, ICR, mouse, po; mice, intragastric perfusion 5 mg/kg, plasma
- Protocol: K43.HCl was formulated to a 0.5 mg/ml solution for intragastric perfusion by using 5% DMSO/5% Tween80/[…] physiological saline; to a 0.2 mg/ml solution for intravenous injection by diluting the above solution for intragastric perfusion with physical saline containing 1% Tween 80. […] Pharmacokinetic parameters after administration were calculated according to the obtained data of plasma concentration, using the non-compartmental model of Phoenix 1.3 software (Pharsight Co., USA).
Where a name gives a salt, the structure may show the parent alone.
Below: a set of entries, each annotated with reported half-life.
Only the number, expressed in min, is required.

C#CCN(Cc1ccc(F)cc1)c1cc(C)c(NC(=O)OC)c(C)c1.Cl [K43•HCl]: 37.2

Now look at this entry.
Challenge: Requested read-out: half-life. Entry: C#CCN(Cc1ccc(F)cc1)c1ccc(NC(=O)OC)c(C)c1 [K41•HCl]
Response given: 38.4

---

Below: a set of entries, each annotated with reported Kp.
- assay-protocol: Pharmacokinetics and distribution in brain tissue in mice
- Type: in vivo, ICR mice
- study-conditions: male, ICR, mouse, brain/plasma, po; mice, intragastric perfusion 5 mg/kg; read-out: AUC0-t ratio (brain/plasma)
Structures can show the parent of a compound that is named as a salt.

C#CCN(Cc1ccc(F)cc1)c1cc(C)c(NC(=O)OC)c(C)c1: ≥ 7
C#CCN(Cc1ccc(F)cc1)c1cc(C)c(NC(=O)OC)c(C)c1.Cl [K43•HCl]: 7.2

Now look at this entry.
Challenge: Requested read-out: Kp. Entry: C#CCN(Cc1ccc(F)cc1)c1ccc(NC(=O)OC)c(C)c1 [K41•HCl]
Response given: 2.6

---

- assay-protocol: Pharmacokinetics and distribution in brain tissue in rats
- Format: in vivo, Sprague Dawley rats
- study-conditions: Sprague-Dawley, rat, plasma, iv, 0.5 mg/kg, SD rats, IV 0.500 mg/kg, individual animals IV-1 to IV-3
outcome-measure: clearance (mL/min/kg)
Only the number, expressed in mL/min/kg, is required.

Challenge: Requested read-out: clearance. Entry: `C#CCN(Cc1ccc(F)cc1)c1cc(C)c(NC(=O)OC)c(C)c1`
Response given: 37.8

---

- assay-protocol: Pharmacokinetics and distribution in brain tissue in mice
- Assay type: in vivo, ICR mice
- study-conditions: male, ICR, mouse, po; mice, intragastric perfusion 5 mg/kg, plasma; read-out: AUC0-t
Structures can show the parent of a compound that is named as a salt.
Below: a set of entries, each annotated with reported AUC0-t.
Only the number, expressed in ng·h/mL, is required.

C#CCN(Cc1ccc(F)cc1)c1ccc(NC(=O)OC)c(C)c1 [K41•HCl]: 646

Now look at this entry.
Challenge: Requested read-out: AUC0-t. Entry: C#CCN(Cc1ccc(F)cc1)c1cc(C)c(NC(=O)OC)c(C)c1.Cl [K43•HCl]
Response given: 184

---

- assay-protocol: Pharmacokinetics and distribution in brain tissue in rats
- Assay type: in vivo, Sprague Dawley rats
- study-conditions: Sprague-Dawley, rat, plasma, po, 5 mg/kg, SD rats, PO 5.00 mg/kg, plasma, mean; read-out: AUC0-inf
outcome-measure: AUC(0-inf)
Units required after the number.

Challenge: Requested read-out: AUC(0-inf). Entry: `C#CCN(Cc1ccc(F)cc1)c1cc(C)c(NC(=O)OC)c(C)c1`
Response given: 828 ng·h/mL

---

- measurement-target: KCNQ2/3 heterotetramer channel (Homo sapiens, UniProt O43525+O43526)
- assay-protocol: KCNQ2/3 heterotetramer channel dose-response curve in CHO-K1 cells cotransfected with KCNQ2 and KCNQ3 plasmids
- study-conditions: FIG. 2, Boltzmann fit
outcome-measure: pEC50
Please keep in mind that pEC50 is minus log10 of the molar concentration; only the number is needed.

Challenge: Requested read-out: pEC50. Entry: C#CCN(Cc1ccc(F)cc1)c1cc(C)c(NC(=O)OC)c(C)c1 [Compound K43]
Response given: 7.31

---

- assay-protocol: Pharmacokinetics and distribution in brain tissue in rats
- Assay type: in vivo, Sprague Dawley rats
- study-conditions: Sprague-Dawley, rat, plasma, iv, 0.5 mg/kg, SD rats, IV 0.500 mg/kg, individual animals IV-1 to IV-3
outcome-measure: half-life (h)
Only the number, expressed in h, is required.

Challenge: Requested read-out: half-life. Entry: `C#CCN(Cc1ccc(F)cc1)c1cc(C)c(NC(=O)OC)c(C)c1`
Response given: 1.26

---

- assay-protocol: Pharmacokinetics and distribution in brain tissue in rats
- Assay type: in vivo, Sprague Dawley rats
- study-conditions: Sprague-Dawley, rat, plasma, iv, 0.5 mg/kg, SD rats, IV 0.500 mg/kg, mean
outcome-measure: clearance (mL/min/kg)
Only the number, expressed in mL/min/kg, is required.

Challenge: Requested read-out: clearance. Entry: C#CCN(Cc1ccc(F)cc1)c1cc(C)c(NC(=O)OC)c(C)c1 [Compound K43]
Response given: 35.8
